# SYSTEM_UNDER_TEST: quinol cytochrome c reductase (CIII) (Apis mellifera)
# Sequence (P34845 whole entry): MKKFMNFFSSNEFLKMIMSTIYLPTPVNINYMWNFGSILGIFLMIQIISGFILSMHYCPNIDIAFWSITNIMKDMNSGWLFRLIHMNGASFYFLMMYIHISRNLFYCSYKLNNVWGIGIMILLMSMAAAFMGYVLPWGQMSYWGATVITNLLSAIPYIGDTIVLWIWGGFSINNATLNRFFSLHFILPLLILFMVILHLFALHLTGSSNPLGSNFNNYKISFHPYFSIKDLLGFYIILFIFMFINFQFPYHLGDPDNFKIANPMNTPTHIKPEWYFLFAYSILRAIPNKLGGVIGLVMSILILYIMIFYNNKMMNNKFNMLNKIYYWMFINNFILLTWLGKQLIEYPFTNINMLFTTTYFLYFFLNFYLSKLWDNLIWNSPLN
# PROTOCOL_DESCRIPTION: QCCR activity, honeybee crude mitochondria
# Format: biochemical
# CONDITIONS_USED: CIII values only indicative, read-out: IC50 QCCR
Assign IC50 to each entry below.

Input line: Request - read-out IC50 | tested on quinol cytochrome c reductase (CIII) (Apis mellifera) | molecule `Cn1cc(C(=O)Nc2ccc(F)cc2-c2ccc(Cl)c(Cl)c2)c(C(F)F)n1`
Output line: 5.7 µM

Input line: Subsequent entry: CC(C)C1C2CCC1c1c(NC(=O)c3cn(C)nc3C(F)F)cccc12 (stereo not shown)
Output line: 87 µM

Input line: Subsequent entry: Cc1nn(C)c(F)c1C(=O)Nc1ccccc1C(C)CC(C)C (stereo not shown)
Output line: > 500 µM

Input line: Subsequent entry: `Cn1cc(C(=O)Nc2ccccc2-c2cc(F)c(F)c(F)c2)c(C(F)F)n1`
Output line: 300 µM
